Readings of activity change % (negative = inhibition) for the listed molecules
Molecular target: Thyroid hormone receptor beta (Homo sapiens) (UniProt P10828)
Sequence (P10828 whole entry, looked up): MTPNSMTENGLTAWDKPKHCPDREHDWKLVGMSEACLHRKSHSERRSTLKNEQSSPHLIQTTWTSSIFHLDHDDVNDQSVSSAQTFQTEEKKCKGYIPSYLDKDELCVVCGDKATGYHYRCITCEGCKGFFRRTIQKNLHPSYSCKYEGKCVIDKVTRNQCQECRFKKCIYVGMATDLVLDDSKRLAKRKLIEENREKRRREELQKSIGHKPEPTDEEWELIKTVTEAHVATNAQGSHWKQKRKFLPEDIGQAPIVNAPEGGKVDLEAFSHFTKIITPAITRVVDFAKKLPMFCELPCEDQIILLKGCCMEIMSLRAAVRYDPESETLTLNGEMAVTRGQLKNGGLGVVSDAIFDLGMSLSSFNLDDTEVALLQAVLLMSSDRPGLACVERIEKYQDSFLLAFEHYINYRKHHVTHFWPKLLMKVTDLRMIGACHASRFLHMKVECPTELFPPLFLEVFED
Experiment: qHTS assay for small molecule antagonists of thyroid hormone receptor beta signaling (AID 588547);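 further: cells stimulated with 0.4 nM T3 agonist during compound exposure; series mostly up to about 77 µM; on the % scale 0 is the no-effect control and ±100 the full control effect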
Conditions: TR-UAS-bla HEK293, beta-lactamase ratio, antagonist mode, 18 h
Results filed as inconclusive are left out.
measured-quantity: activity change % (negative = inhibition) (%)

molecule: CCCCN(CCCC)CCCC
numeric-result: -2.52

molecule: OCc1cccc(Oc2ccccc2)c1
numeric-result: 9.19

molecule: CC(C)Cc1c(C(=O)O)c(C(F)F)nc(C(F)(F)F)c1C1=NCCS1
numeric-result: -21.3

molecule: CC(COCC(C)OC(=O)c1ccccc1)OC(=O)c1ccccc1 (configuration not stated)
numeric-result: -7.07

molecule: Cn1sccc1=O
numeric-result: -11.2

molecule: CN(C)c1nc(=O)n(C2CCC(O)CC2)c(=O)n1C (configuration not stated)
numeric-result: 11.1

molecule: CCCCCCCCCCCCCc1ccccc1
numeric-result: 11.3

###

Assay: qHTS assay for small molecule antagonists of retinoid X receptor alpha signaling (AID 588546);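 further: cells stimulated with 9-cis-retinoic acid as agonist; on the % scale 0 is the no-effect control and ±100 the full control effect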
Conditions: HEK293T RXRa-UAS-bla, beta-lactamase ratio, antagonist mode; measured here: W530 green channel, cytotoxicity proxy
Records with an inconclusive call do not appear.

compound: COC(=O)C1CCC(C(=O)OC)CC1 (centres undefined)
readout-unit: %
max response: -8.09
//
compound: O=C1CCC(C2CCCCC2)CC1
readout-unit: %
max response: -11.9
//
compound: CCC(O)OCCCOC (centres undefined)
readout-unit: %
max response: -12.7
//
compound: CCCCCCCCCCCC(=O)N(C)CC(=O)O
readout-unit: %
max response: 7.91
//
compound: CCCCCCCCCCCCN
readout-unit: %
max response: -2.37
//
compound: O=C1CCCCCCCCCCC1
readout-unit: %
max response: -10.4
//
compound: O=C(O)C(Oc1ccc(Cl)cc1)Oc1ccc(Cl)cc1
readout-unit: %
max response: -7.28
//
compound: CCOC(=O)CCCCCCCCC(=O)OCC
readout-unit: %
max response: -7.52
//
compound: CCCCCCC(C)(C)S
readout-unit: %
max response: -14.4
//
compound: CCCCCCCC(=O)OC
readout-unit: %
max response: -15
//
compound: CO[Si](OC)(OC)c1ccccc1
readout-unit: %
max response: -3.5
//
compound: C1CCC2(CCCCO2)OC1
readout-unit: %
max response: -9.54
//
compound: CCN(Cc1cccc(S(=O)(=O)O)c1)c1ccc(C(=C2C=CC(=[N+](CC)Cc3cccc(S(=O)(=O)[O-])c3)C=C2)c2ccccc2)cc1
readout-unit: %
max response: 16.5
//
compound: COC(=O)CCSCCC(=O)OC
readout-unit: %
max response: -8.85

###

Target: Thyroid hormone receptor beta (Homo sapiens)
Experiment: qHTS assay for small molecule antagonists of thyroid hormone receptor beta signaling (AID 588547);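 further: cells stimulated with 0.4 nM T3 agonist during compound exposure; series mostly up to about 77 µM; on the % scale 0 is the no-effect control and ±100 the full control effect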
Conditions: TR-UAS-bla HEK293, beta-lactamase ratio, antagonist mode, 18 h
Inconclusive results are not listed.
measured-quantity: activity change % (negative = inhibition) (%)

molecule: O=C1CCCCCCCCCCC1
readout-unit: %
numeric-result: 4.81

molecule: O=C(O)C(Oc1ccc(Cl)cc1)Oc1ccc(Cl)cc1
readout-unit: %
numeric-result: -5.07

molecule: O=C(O)c1ccc(C(=O)O)c(C(=O)O)c1
readout-unit: %
numeric-result: 8.09

molecule: CC(C)C[C@H](NC(=O)OCC1c2ccccc2-c2ccccc21)C(=O)O
readout-unit: %
numeric-result: -4.45

molecule: C[C@]12CC[C@@H]3c4ccc(O)cc4CC[C@H]3[C@@H]1CC[C@H]2O
readout-unit: %
numeric-result: -9.59

molecule: Cc1nn(C)c(Oc2ccccc2)c1/C=N/OCc1ccc(C(=O)OC(C)(C)C)cc1
readout-unit: %
numeric-result: -18.8

molecule: CCCCC(CC)C(=O)OCCOCCOCCOC(=O)C(CC)CCCC (configuration not stated)
readout-unit: %
numeric-result: 12.7

molecule: CCCCCCCCC(=O)O
readout-unit: %
numeric-result: 3.07

molecule: CC(C)CC(C)(O)C#CC(C)(O)CC(C)C (configuration not stated)
readout-unit: %
numeric-result: 20.8

molecule: C[Si]1(C)N[Si](C)(C)N[Si](C)(C)N1
readout-unit: %
numeric-result: 17.9

molecule: CC(C)(C)c1cc(C(C)(C)C)c(O)c(C(C)(C)C)c1
readout-unit: %
numeric-result: -16.9

molecule: CC(C)(C)c1cccc(C(C)(C)C)c1O
readout-unit: %
numeric-result: 16.3

molecule: CCCCCCCCCCCCCC(=O)OC
readout-unit: %
numeric-result: 3.36

molecule: O=S(=O)(O)c1ccc(N=Nc2c(O)ccc3cc(S(=O)(=O)O)ccc23)cc1
readout-unit: %
numeric-result: -13.9

molecule: CC(=O)/C=C/C1C(C)=CCCC1(C)C (configuration not stated)
readout-unit: %
numeric-result: 5.94

molecule: CC(C)c1ccc2cc(C(C)C)ccc2c1
readout-unit: %
numeric-result: -11

molecule: CC1(C)C(=O)N(Br)C(=O)N1Br
readout-unit: %
numeric-result: 6.14

molecule: CCCCC(CC)COP(=O)(O)OCC(CC)CCCC (configuration not stated)
readout-unit: %
numeric-result: -4.02

molecule: CCCCCCCC(=O)Oc1c(Br)cc(C#N)cc1Br
readout-unit: %
numeric-result: -2.51

molecule: Cn1c(=O)[nH]c(=O)n(C2CCCCC2)c1=O
readout-unit: %
numeric-result: 4.13

molecule: C=CCCCCCCCCC=O
readout-unit: %
numeric-result: 19.2

molecule: COC(=O)c1ccccc1C(=O)O
readout-unit: %
numeric-result: -12.2

molecule: C=CC(=O)OCC(C)OCC(C)OCC(C)OC(=O)C=C (configuration not stated)
readout-unit: %
numeric-result: 0.874

molecule: O=[N+]([O-])c1ccc2c(c1)Cc1ccccc1-2
readout-unit: %
numeric-result: -0.921

molecule: CCCCN(CCCC)CCCCCCN(CCCC)CCCC
readout-unit: %
numeric-result: 10

molecule: CC/C=C\CCOC(=O)c1ccccc1O
readout-unit: %
numeric-result: 0.0454

molecule: OCC(CO)(CO)COCC(CO)(CO)CO
readout-unit: %
numeric-result: -4.48
